Hi there, I'd appreciate the recorded Luminescence ratio vs MRA for every entry that follows.
Target: ECM
Test: ECM binding assay, ECL reaction, value divided by that of MRA

binder	Luminescence ratio vs MRA
bivalent IgG antibody 25H0024/20L0072 (antibody, V domains shown) VH: QVQLVESGGGVVQPGRSLRLSCAASGFTFSSVTMSWVRQAPGQGLEWMGTISSGGGRTYYPDSVKGRFTISRDNSKNTLYLQMNSLRAEDTAVYYCARGDYRYDGFAYWGQGTLVTVSS VL: DIQMTQSPSSLSASVGDRVTITCRASYNIDSYLAWYQQKPGKAPKLLIYASTLLVDGVPSRFSGSRSGTDFTLTISSLQPEDFATYYCQHYYSIPYTFGQGTKLEIK	2.27 fold

Pending binder:
Input: Fill blank: measured Luminescence ratio vs MRA of the binder bivalent IgG antibody 25H0042/20L0072 (antibody, V domains shown) VH: QVQLVESGGGVVQPGRSLRLSCAASGFTFSSYVMSWVRQAPGQGLEWMGTISSGGGRTYYPDSVKGRFTISRDNSKNTLYLQMNSLRAEDTAVYYCARGDYRYDGFAYWGQGTLVTVSS VL: DIQMTQSPSSLSASVGDRVTITCRASYNIDSYLAWYQQKPGKAPKLLIYASTLLVDGVPSRFSGSRSGTDFTLTISSLQPEDFATYYCQHYYSIPYTFGQGTKLEIK is ____.
Output: 3.1 fold
